# systemTested: Adenosine A2 receptor (guinea pig)
# testDetails: Binding affinity against adenosine A2 receptor of striatal membrane using [3H]CGS-21680 as a radioligand
Give Ki for every item shown.

For CCCn1c(=O)n(CCCO)c(=O)c2[nH]cnc21 the compound record lists Ki as 68.7 µM

For C=CCCn1c(=O)c2[nH]cnc2n(CCC)c1=O the compound record lists Ki as 3.2 µM

For CCCn1cnc2c1c(=O)n(C)c(=O)n2CCC the compound record lists Ki as 43.8 µM

For CCCn1c(=O)n(C)c(=O)c2c1ncn2CC(C)=O the compound record lists Ki as > 200 µM

For CCCn1c(=O)n(C)c(=O)c2c1ncn2CC#N the compound record lists Ki as 12.8 µM
